Structures can show the parent of a compound that is named as a salt.
# collection of MIC values tested on Veillonella parvula KYA 10790

- molecule: "O=C(O)c1cn(C2CC2)c2c(Cl)c(N3CCC(CNCCO)C3)c(F)cc2c1=O (stereo not shown)"
  MIC / µg/mL: 0.1
- molecule: "O=C(O)c1cn(C2CC2)c2cc(N3CCC(CNCCO)C3)c(F)cc2c1=O (stereo not shown) [Exp. 2, hydrochloride]"
  MIC / µg/mL: 3.13
- molecule: "O=C(O)c1cn(C2CC2)c2cc(N3CCNCC3)c(F)cc2c1=O [CPFX, Ciprofloxacin, reference compound]"
  MIC / µg/mL: 0.2
- molecule: "O=C(O)c1cn(C2CC2)c2c(F)c(N3CCC(CNCCO)C3)c(F)cc2c1=O (stereo not shown)"
  MIC / µg/mL: 0.39

Data provenance is patent EP0221541A2.
